Data provenance is patent US20160311826A1.

target: human recombinant soluble guanylate cyclase enzyme α1β1 (h sGC) (Homo sapiens, UniProt Q02108+Q02153); construct: purchased Enzo Life Sciences ALX-201-177; assay: Purified human recombinant sGC α1β1 enzyme assay in the presence of DETA-NONOate (cGMP HTRF); assay type: biochemical; conditions: 30 uM DETA NONOate; concentration eliciting 50% of high control response (30 uM Compound Y); read-out: sGC_Enz_HTRF_a1b1 EC50 Abs
Sequence (Q02108 whole entry): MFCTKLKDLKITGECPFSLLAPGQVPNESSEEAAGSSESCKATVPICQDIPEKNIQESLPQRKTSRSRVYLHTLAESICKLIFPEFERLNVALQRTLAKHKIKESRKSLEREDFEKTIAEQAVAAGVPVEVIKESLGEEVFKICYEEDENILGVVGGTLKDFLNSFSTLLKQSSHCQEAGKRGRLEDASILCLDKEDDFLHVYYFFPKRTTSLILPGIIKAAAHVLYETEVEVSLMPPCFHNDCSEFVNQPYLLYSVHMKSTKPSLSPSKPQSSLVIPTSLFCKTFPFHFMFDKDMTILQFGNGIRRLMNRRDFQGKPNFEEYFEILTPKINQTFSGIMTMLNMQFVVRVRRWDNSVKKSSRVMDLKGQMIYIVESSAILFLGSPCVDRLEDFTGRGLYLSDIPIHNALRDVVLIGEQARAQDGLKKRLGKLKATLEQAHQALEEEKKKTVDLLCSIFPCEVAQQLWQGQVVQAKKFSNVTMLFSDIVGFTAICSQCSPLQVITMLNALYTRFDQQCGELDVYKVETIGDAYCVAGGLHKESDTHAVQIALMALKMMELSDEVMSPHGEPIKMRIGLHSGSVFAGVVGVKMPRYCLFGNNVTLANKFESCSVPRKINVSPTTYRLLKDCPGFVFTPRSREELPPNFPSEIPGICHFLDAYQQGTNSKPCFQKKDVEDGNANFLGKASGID
Sequence (Q02153 whole entry): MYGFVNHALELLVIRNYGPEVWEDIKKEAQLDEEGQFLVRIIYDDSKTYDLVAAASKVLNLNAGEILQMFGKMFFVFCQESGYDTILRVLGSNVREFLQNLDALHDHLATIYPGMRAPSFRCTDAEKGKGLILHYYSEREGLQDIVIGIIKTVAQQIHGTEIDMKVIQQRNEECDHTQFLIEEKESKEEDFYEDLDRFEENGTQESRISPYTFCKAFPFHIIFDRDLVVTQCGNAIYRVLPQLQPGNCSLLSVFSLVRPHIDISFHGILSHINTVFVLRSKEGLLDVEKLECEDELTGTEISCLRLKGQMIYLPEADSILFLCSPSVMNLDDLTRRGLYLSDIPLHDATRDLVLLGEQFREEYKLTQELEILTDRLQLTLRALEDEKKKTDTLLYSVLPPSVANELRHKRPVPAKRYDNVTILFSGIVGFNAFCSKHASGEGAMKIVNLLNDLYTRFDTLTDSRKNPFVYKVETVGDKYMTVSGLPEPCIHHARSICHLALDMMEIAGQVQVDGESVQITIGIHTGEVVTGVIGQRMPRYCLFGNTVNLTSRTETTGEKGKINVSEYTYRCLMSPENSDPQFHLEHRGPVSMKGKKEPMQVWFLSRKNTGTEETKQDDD
pEC50: −log10 of the molar value.
Listed next: entries and their corresponding pEC50.

Study these solved cases before continuing.
* COc1cc(-c2ncc(F)c(NCC(=O)O)n2)nn1Cc1ccccc1F | < 5.30
* CC1(C(N)=O)C(=O)Nc2nc(-c3nn(Cc4ccccc4F)c(=O)[nH]3)nc(N)c21 (centres unmarked) | < 4.52
* COc1cc(-c2ncc(F)c(NCCO)n2)nn1Cc1ccccc1F | 5.30 to 5.70

Fill in: pEC50 of COc1cc(-c2ncc(F)c(NCC(O)CO)n2)nn1Cc1ccccc1F (centres unmarked) is ___
5.30 to 5.70

Fill in: pEC50 of CC(C)Oc1cc(-c2nc(N)c3c(n2)NC(=O)C3(C)C(N)=O)nn1Cc1ccccc1F (centres unmarked) is ___
< 5.30

Fill in: pEC50 of `COc1cc(-c2ncc(F)c(NCc3cc(=O)[nH]o3)n2)nn1Cc1ccccc1F` is ___
5.30 to 5.70

Fill in: pEC50 of `COc1cc(-c2nccc(N)n2)nn1Cc1ccccc1F` is ___
< 5.30

Fill in: pEC50 of CC1(C(N)=O)C(=O)Nc2nc(-c3cc(O)n(Cc4ccccc4F)n3)nc(N)c21 (centres unmarked) is ___
< 5.30

----------
Listed next: entries and their corresponding EC50.
Biological target: human recombinant soluble guanylate cyclase enzyme α1β1 (h sGC) (Homo sapiens, UniProt Q02108+Q02153)
Construct: purchased Enzo Life Sciences ALX-201-177
Experiment: Purified human recombinant sGC α1β1 enzyme assay in the presence of DETA-NONOate (cGMP HTRF)
Format: biochemical
Conditions: 30 uM DETA NONOate; concentration eliciting 50% of high control response (30 uM Compound Y); read-out: sGC_Enz_HTRF_a1b1 EC50 Abs
Procedure: Purified human recombinant soluble guanylate cyclase enzyme α1β1 (h sGC) obtained from Enzo Life Sciences (P/N: ALX-201-177) was used to evaluate the activity of test compounds. […] cGMP concentrations in all samples were determined using the cGMP HTRF (Cisbio P/N: 62GM2PEC) assay per manufacturer's instructions. […]

- Cn1c(-c2nc(N)c3c(n2)NC(=O)C3(C)C(=O)NC2CC2)nn(Cc2ccccc2F)c1=O (stereo not shown): < 2 µM
- COc1cc(-c2ncc(F)c(N3CCC[C@H](C)[C@@H]3C(=O)O)n2)nn1Cc1ccccc1F: 2 to 5 µM

Fill in: EC50 of CCOC(=O)C1(C)C(=O)Nc2nc(-c3nn(Cc4ccccc4F)c(=O)[nH]3)nc(N)c21 (stereo not shown) is ___
> 5 µM

Fill in: EC50 of `Fc1cnc(-c2cc(OC(F)F)n(Cc3cccc(F)c3F)n2)nc1` is ___
> 5 µM

----------
Listed next: entries and their corresponding EC50.
target: human recombinant soluble guanylate cyclase enzyme α1β1 (h sGC) (Homo sapiens, UniProt Q02108+Q02153); construct: purchased Enzo Life Sciences ALX-201-177; test: Purified human recombinant sGC α1β1 enzyme assay in the presence of DETA-NONOate (cGMP HTRF); format: biochemical; conditions: 30 uM DETA NONOate; concentration eliciting 50% of high control response (30 uM Compound Y); read-out: sGC_Enz_HTRF_a1b1 EC50 Abs

Study these solved cases before continuing.
* Cn1c(-c2nc(N)c3c(n2)NC(=O)C3(C)C(N)=O)nn(Cc2ccccc2F)c1=O (centres unmarked) [Compound I-18] | > 5 µM
* COc1nc(-c2nc(N)c3c(n2)NC(=O)C3(C)C(=O)NC2CC2)nn1Cc1ccccc1F (centres unmarked) [Compound I-37] | 2 to 5 µM

Fill in: EC50 of COc1nc(-c2nc(N)c3c(n2)NC(=O)C3(C)C(N)=O)nn1Cc1ccccc1F (centres unmarked) [Compound I-17] is ___
> 5 µM

Fill in: EC50 of O=c1[nH]c(-c2cc(OC(F)F)n(Cc3ccccc3F)n2)ncc1F [Compound I-4] is ___
> 5 µM
